Tested on: M. tuberculosis H37Rv (ATCC 27294)
Assay: MIC by broth dilution method, M. tuberculosis H37Rv
Assay type: cell-based
Conditions: Mycobacterium tuberculosis, 504 h, broth dilution, 3 weeks; read-out: MIC M. tb H37Rv
propertyLabel: MIC (µg/mL)
Your answer is read as µg/mL, so omit the unit and give the number.

Tell me the measured MIC of CCC(C)c1ccc(OCc2cc(-c3ccc(OC[C@@]4(C)Cn5cc([N+](=O)[O-])nc5O4)cc3)no2)cc1 (stereo partly drawn) , please.
2

Tell me the measured MIC of C[C@]1(COc2ccc(NC(=S)Nc3ccc(OC(F)(F)F)cc3)cc2)Cn2cc([N+](=O)[O-])nc2O1 , please.
2

Tell me the measured MIC of CN(c1ccccc1)S(=O)(=O)c1ccc(OC[C@@]2(C)Cn3cc([N+](=O)[O-])nc3O2)cc1 , please.
4

Tell me the measured MIC of Cc1ccc(OCc2cn(-c3cccc(OC[C@@]4(C)Cn5cc([N+](=O)[O-])nc5O4)c3)nn2)cc1 , please.
4

Tell me the measured MIC of C[C@]1(COc2ccc(-n3cc(COc4ccc(OC(F)(F)F)cc4)nn3)cc2)Cn2cc([N+](=O)[O-])nc2O1 , please.
0.12

Tell me the measured MIC of C[C@]1(COc2ccccc2-n2cc(COc3ccccc3F)nn2)Cn2cc([N+](=O)[O-])nc2O1 , please.
2

Tell me the measured MIC of COc1ccc(-c2cc(-c3ccc(OC[C@@]4(C)Cn5cc([N+](=O)[O-])nc5O4)cc3)no2)cc1 , please.
0.5

Tell me the measured MIC of C[C@]1(COc2ccc(-c3cc(-c4ccccc4F)on3)cc2)Cn2cc([N+](=O)[O-])nc2O1 , please.
2

Tell me the measured MIC of CCCCCCCc1cn(-c2ccc(OC[C@@]3(C)Cn4cc([N+](=O)[O-])nc4O3)cc2)nn1 , please.
4

----------
Test system: M. tuberculosis H37Rv (ATCC 27294)
Test: MIC by broth dilution method, M. tuberculosis H37Rv
Format: cell-based
Settings: Mycobacterium tuberculosis, 504 h, broth dilution, 3 weeks; read-out: MIC M. tb H37Rv
Each record is given t if its reported MIC is strictly below 2 mg/L. Records at or above 2 mg/L are given f.

Dear reviewer, please state whether Cc1ccc(Oc2nnnn2-c2ccc(OC[C@@]3(C)Cn4cc([N+](=O)[O-])nc4O3)cc2)cc1 has MIC strictly beneath 2 mg/L.
f

Dear reviewer, please state whether C[C@]1(COc2ccc(S(=O)(=O)N3CCC(c4ccccc4)CC3)cc2)Cn2cc([N+](=O)[O-])nc2O1 has MIC strictly beneath 2 mg/L.
t

Dear reviewer, please state whether C[C@]1(COc2ccc(S(=O)(=O)N3CCN(c4cccc(Cl)c4)CC3)cc2)Cn2cc([N+](=O)[O-])nc2O1 has MIC strictly beneath 2 mg/L.
f

Dear reviewer, please state whether CC(C)c1ccc(OCc2cn(-c3ccc(OC[C@@]4(C)Cn5cc([N+](=O)[O-])nc5O4)cc3)nn2)cc1 has MIC strictly beneath 2 mg/L.
f

Dear reviewer, please state whether COc1ccc(-c2cn(-c3ccc(OC[C@@]4(C)Cn5cc([N+](=O)[O-])nc5O4)cc3)nn2)cc1 has MIC strictly beneath 2 mg/L.
t

----------
System: M. tuberculosis H37Rv (ATCC 27294)
Assay: MIC by broth dilution method, M. tuberculosis H37Rv
Type: cell-based
Details: Mycobacterium tuberculosis, 504 h, broth dilution, 3 weeks; read-out: MIC M. tb H37Rv
Task for the reader: assign each of the following molecules its reported MIC.
Report the figure along with its unit, number first.

Tell me the measured MIC of C[C@]1(COc2ccc(NC(=O)Nc3ccc(F)cc3)cc2)Cn2cc([N+](=O)[O-])nc2O1 , please.
2 µg/mL

Tell me the measured MIC of CCc1ccc(OCc2cc(-c3ccc(OC[C@@]4(C)Cn5cc([N+](=O)[O-])nc5O4)cc3)no2)cc1 , please.
2 µg/mL

Tell me the measured MIC of COc1ccc(NC(=S)Nc2ccc(OC[C@@]3(C)Cn4cc([N+](=O)[O-])nc4O3)cc2)cc1 , please.
2 µg/mL

Cited source for all entries: patent US9845330B2
